Biological target: 72 kDa type IV collagenase (Homo sapiens, UniProt P08253)
Sequence (P08253 whole entry): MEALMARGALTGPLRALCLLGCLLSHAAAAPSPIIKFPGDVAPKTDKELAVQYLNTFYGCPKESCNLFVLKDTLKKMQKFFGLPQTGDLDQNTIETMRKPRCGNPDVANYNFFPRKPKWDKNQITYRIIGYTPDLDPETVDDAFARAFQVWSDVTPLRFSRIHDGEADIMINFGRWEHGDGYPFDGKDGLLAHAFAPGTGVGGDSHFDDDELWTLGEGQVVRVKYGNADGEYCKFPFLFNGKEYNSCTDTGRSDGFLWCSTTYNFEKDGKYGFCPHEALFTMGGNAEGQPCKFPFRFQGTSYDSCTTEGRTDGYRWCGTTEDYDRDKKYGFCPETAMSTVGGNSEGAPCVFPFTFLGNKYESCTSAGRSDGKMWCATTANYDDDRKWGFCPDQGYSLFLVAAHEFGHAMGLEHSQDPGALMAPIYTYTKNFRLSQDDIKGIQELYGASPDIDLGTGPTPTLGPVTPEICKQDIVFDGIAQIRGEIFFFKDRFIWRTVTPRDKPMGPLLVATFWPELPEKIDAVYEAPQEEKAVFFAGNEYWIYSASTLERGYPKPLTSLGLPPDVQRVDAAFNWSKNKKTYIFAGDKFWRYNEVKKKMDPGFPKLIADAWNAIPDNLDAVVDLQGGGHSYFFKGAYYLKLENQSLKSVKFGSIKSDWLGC
Test: Slow binding inhibition of human recombinant MMP2 using MOCAc-Pro-Leu-Gly-Leu-A2pr(Dnp)-Ala-Arg-NH2 substrate
measure: Ki (nM)
Give the value, in units of nM, as a plain number.

input: Please report Ki for the following molecule: `Cl.NCc1ccc(Oc2ccc(S(=O)(=O)C[C@H]3CS3)cc2)cc1`
output: 127

input: Read off the recorded Ki for `NCc1ccc(Oc2ccc(S(=O)(=O)C[C@@H]3CS3)cc2)cc1`
output: 37

----------
Assay: AUC in C57BLKS/6J db/db mouse plasma at 2 mg/kg, iv dosed as single administration by UPLC-MRM analysis
Assay type: ADME, organism-based
measure: AUC
Hi, when you answer, please include the unit after the number. Thanks!

input: Identify measured AUC associated with `Cl.NCc1ccc(Oc2ccc(S(=O)(=O)C[C@H]3CS3)cc2)cc1`
output: 0.583 µM·h

Recorded values, source ChEMBL document CHEMBL4196209.
